FYI, the data here is from ChEMBL document CHEMBL4184125.

# assay-system: UniProtKB Q96EB6
# Sequence (Q96EB6 whole entry): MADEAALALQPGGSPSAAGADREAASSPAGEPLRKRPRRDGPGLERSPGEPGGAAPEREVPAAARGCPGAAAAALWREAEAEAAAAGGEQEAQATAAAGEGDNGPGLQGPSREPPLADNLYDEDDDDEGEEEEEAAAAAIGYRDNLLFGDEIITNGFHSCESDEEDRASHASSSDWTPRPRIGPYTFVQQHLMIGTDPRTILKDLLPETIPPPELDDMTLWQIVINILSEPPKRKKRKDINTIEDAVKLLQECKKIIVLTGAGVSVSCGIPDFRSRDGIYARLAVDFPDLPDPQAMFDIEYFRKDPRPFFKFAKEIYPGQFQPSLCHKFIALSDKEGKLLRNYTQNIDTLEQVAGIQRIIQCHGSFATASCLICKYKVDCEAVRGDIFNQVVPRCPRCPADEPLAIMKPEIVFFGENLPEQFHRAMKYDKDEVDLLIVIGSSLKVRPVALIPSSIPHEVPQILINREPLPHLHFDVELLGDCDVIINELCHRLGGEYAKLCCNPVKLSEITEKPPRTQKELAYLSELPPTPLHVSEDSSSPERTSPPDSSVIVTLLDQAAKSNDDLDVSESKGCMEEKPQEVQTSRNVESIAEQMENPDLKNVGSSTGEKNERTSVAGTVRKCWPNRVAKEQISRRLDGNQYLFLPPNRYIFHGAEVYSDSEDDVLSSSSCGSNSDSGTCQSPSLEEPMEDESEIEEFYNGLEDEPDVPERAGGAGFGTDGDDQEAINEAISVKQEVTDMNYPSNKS
# experiment-description: Inhibition of SIRT1 (unknown origin) assessed as reduction in Fluor de Lys deacetylation at 10 to 20 uM incubated for 5 mins followed by substrate addition measured after 45 mins in presence of NAD/NADH by fluorescence assay
The source made the active and inactive calls. The calls are words filed in the database; no cut-off is given here.
endpoint-label: inhibition

C/C(=C\CCC(C)(C)O)[C@H]1CC[C@]2(C)[C@@H]1[C@H](O)C[C@@H]1[C@@]3(C)CC[C@H](O[C@@H]4O[C@H](CO)[C@@H](O)[C@H](O)[C@H]4O)C(C)(C)[C@@H]3[C@@H](O)C[C@]12C : inactive
C/C(=C/CCC(C)(C)O)[C@H]1CC[C@]2(C)[C@@H]1[C@H](O)C[C@@H]1[C@@]3(C)CC[C@H](O)C(C)(C)[C@@H]3[C@@H](O)C[C@]12C : inactive
CC(C)(O)CCC[C@@](C)(O)[C@H]1CC[C@]2(C)[C@@H]1[C@H](O)C[C@@H]1[C@@]3(C)CC[C@H](O)C(C)(C)[C@@H]3[C@@H](O)C[C@]12C : inactive
